- test.target: EGFR (Homo sapiens, UniProt P00533)
- Construct: purchased Carna 14-531
- Sequence (P00533 25-1210): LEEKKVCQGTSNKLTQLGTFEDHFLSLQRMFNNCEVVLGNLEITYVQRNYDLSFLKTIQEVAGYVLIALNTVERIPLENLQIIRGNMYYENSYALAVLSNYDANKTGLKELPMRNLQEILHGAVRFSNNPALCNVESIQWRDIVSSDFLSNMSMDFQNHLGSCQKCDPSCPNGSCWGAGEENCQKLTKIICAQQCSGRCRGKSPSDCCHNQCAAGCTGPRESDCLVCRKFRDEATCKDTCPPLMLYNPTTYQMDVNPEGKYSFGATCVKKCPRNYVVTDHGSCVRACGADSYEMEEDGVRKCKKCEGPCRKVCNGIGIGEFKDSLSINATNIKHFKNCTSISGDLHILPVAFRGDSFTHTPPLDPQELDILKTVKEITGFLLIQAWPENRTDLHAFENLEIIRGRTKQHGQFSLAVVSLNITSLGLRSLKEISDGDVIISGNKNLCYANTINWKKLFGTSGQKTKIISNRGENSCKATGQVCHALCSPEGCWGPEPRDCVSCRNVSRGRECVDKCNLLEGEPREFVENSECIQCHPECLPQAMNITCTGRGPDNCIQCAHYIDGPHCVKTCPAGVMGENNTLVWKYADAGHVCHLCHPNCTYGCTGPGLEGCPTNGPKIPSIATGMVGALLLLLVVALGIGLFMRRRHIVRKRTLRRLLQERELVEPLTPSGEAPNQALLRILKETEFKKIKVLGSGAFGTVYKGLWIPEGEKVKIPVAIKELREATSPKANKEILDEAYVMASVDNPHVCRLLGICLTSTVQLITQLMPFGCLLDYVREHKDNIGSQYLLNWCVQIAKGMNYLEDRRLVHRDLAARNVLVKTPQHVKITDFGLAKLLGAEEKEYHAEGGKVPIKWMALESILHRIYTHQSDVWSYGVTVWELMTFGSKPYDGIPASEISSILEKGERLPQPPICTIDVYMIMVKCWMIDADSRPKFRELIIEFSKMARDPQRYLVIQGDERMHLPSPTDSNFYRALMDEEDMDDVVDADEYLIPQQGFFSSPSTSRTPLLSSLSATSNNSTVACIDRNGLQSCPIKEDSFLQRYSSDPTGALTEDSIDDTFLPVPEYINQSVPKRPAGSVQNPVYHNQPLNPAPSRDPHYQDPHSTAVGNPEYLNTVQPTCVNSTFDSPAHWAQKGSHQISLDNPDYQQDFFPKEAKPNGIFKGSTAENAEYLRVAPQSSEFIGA
- test.description: Kinase inhibition, mobility shift assay
- Type: biochemical
- stated.conditions: compound concentration 80 nM
quantity.measured: Single-concentration inhibitory activity against EGFR, Mean (100% inhibition)

Incoming: Which Single-concentration inhibitory activity against EGFR, Mean (100% inhibition) reading was recorded for the molecule C=CC(=O)Nc1cccc(Oc2nc(Nc3ccc(N4CCN(C)CC4)c([N+](=O)[O-])c3)nc3c2ccn3COC(=O)C(C)(C)C)c1 [Compound 7] ?
Outgoing: 4.7

(a) C=CC(=O)Nc1cccc(Oc2nc(Nc3ccc(N4CCN(C)CC4)c(Cl)c3)nc3[nH]ccc23)c1 [Compound 2]
(b) C=CC(=O)Nc1cccc(Oc2nc(Nc3ccc(N4CCN(C)CC4)c(OC)c3)nc3[nH]ccc23)c1 [Compound 4]
(c) C=CC(=O)Nc1cccc(Oc2nc(Nc3ccc(N4CCN(C)CC4)c(N)c3)nc3c2ccn3COC(=O)C(C)(C)C)c1 [Compound 8]
Incoming: // sort entries: Single-concentration inhibitory activity against EGFR, Mean (100% inhibition), high to low Reply with the item labels sorted in the order that was asked for.
Outgoing: a, b, c
